Test system: HCT-116
Assay: Induction of apoptosis in human HCT116 cells harboring wild-type p53 assessed as increase in early apoptosis at 2 times IC50 after 48 hrs by YoPro/propidium iodide/Hoechst staining based assay
Assay type: functional, cell-based
The source made the active and inactive calls. The rule behind the calls is not given here.
Classes used: T for active, F for inactive

COMPOUND: COc1cccc(/C=C/C(=O)c2c(OC)cc(OC)cc2OC)c1
ANSWER_LABEL: T
//
COMPOUND: COc1cc(OC)c(C(=O)/C=C/c2ccc(Br)cc2)c(OC)c1
ANSWER_LABEL: T
//
COMPOUND: COc1cc(O)c(C(=O)/C=C/c2ccc(Br)cc2)c(OC)c1
ANSWER_LABEL: F
//
COMPOUND: COc1cc(O)c(C(=O)/C=C/c2ccccc2OC)c(OC)c1
ANSWER_LABEL: T
//
COMPOUND: COc1cc(O)c(C(=O)/C=C/c2ccc(F)cc2)c(OC)c1
ANSWER_LABEL: T
//
COMPOUND: COc1cc(O)c(C(=O)/C=C/c2ccccc2SC)c(OC)c1
ANSWER_LABEL: T
//
COMPOUND: COc1cc(OC)c(C(=O)/C=C/c2ccc(F)cc2)c(OC)c1
ANSWER_LABEL: T
//
COMPOUND: COc1cc(OC)c(C(=O)/C=C/c2ccccc2SC)c(OC)c1
ANSWER_LABEL: T
//
COMPOUND: COc1cc(OC)c(C(=O)/C=C/c2ccccc2)c(OC)c1
ANSWER_LABEL: T
//
COMPOUND: COc1cccc(/C=C/C(=O)c2c(O)cc(OC)cc2OC)c1
ANSWER_LABEL: T
//
COMPOUND: COc1cc(O)c(C(=O)/C=C/c2ccccc2)c(OC)c1 [FLAVOKAWAIN B]
ANSWER_LABEL: T

* * *

System: Caco-2
Assay: Cytotoxicity against human Caco2 cells assessed as cell survival at 50 uM after 48 hrs by Hoechst 33342 staining based assay relative to control
Type: functional
Conditions: Caco-2, 48 h, read-out: Survival

STRUCTURE_SMILES_STRING: COc1cc(O)c(C(=O)/C=C/c2ccc(N(C)C)cc2)c(OC)c1
SCALE_UNIT: %
INEQUALITY_OPERATOR: >
viability at 50 µM: 80
//
STRUCTURE_SMILES_STRING: COc1cc(O)c(C(=O)/C=C/c2ccc(F)cc2)c(OC)c1
SCALE_UNIT: %
INEQUALITY_OPERATOR: =
viability at 50 µM: 45
//
STRUCTURE_SMILES_STRING: COc1cc(OC)c(C(=O)/C=C/c2ccc(F)cc2)c(OC)c1
SCALE_UNIT: %
INEQUALITY_OPERATOR: =
viability at 50 µM: 3
//
STRUCTURE_SMILES_STRING: COc1cc(OC)c(C(=O)/C=C/c2ccc(O)cc2)c(OC)c1
SCALE_UNIT: %
INEQUALITY_OPERATOR: =
viability at 50 µM: 24
//
STRUCTURE_SMILES_STRING: COc1cc(O)c(C(=O)/C=C/c2ccccc2OC)c(OC)c1
SCALE_UNIT: %
INEQUALITY_OPERATOR: =
viability at 50 µM: 43
//
STRUCTURE_SMILES_STRING: COc1cc(O)c(C(=O)/C=C/c2ccccc2SC)c(OC)c1
SCALE_UNIT: %
INEQUALITY_OPERATOR: =
viability at 50 µM: 23
//
STRUCTURE_SMILES_STRING: COc1cccc(/C=C/C(=O)c2c(OC)cc(OC)cc2OC)c1
SCALE_UNIT: %
INEQUALITY_OPERATOR: =
viability at 50 µM: 2
//
STRUCTURE_SMILES_STRING: COc1cc(OC)c(C(=O)/C=C/c2ccccc2OC)c(OC)c1
SCALE_UNIT: %
INEQUALITY_OPERATOR: =
viability at 50 µM: 5
//
STRUCTURE_SMILES_STRING: COc1cc(O)c(C(=O)/C=C/c2ccc(Br)cc2)c(OC)c1
SCALE_UNIT: %
INEQUALITY_OPERATOR: >
viability at 50 µM: 80
//
STRUCTURE_SMILES_STRING: COc1cc(OC)c(C(=O)/C=C/c2ccc(Br)cc2)c(OC)c1
SCALE_UNIT: %
INEQUALITY_OPERATOR: =
viability at 50 µM: 0
//
STRUCTURE_SMILES_STRING: COc1cc(OC)c(C(=O)/C=C/c2ccccc2SC)c(OC)c1
SCALE_UNIT: %
INEQUALITY_OPERATOR: =
viability at 50 µM: 17
//
STRUCTURE_SMILES_STRING: COc1ccc(/C=C/C(=O)c2c(O)cc(OC)cc2OC)cc1
SCALE_UNIT: %
INEQUALITY_OPERATOR: =
viability at 50 µM: 32
//
STRUCTURE_SMILES_STRING: COc1cccc(/C=C/C(=O)c2c(O)cc(OC)cc2OC)c1
SCALE_UNIT: %
INEQUALITY_OPERATOR: =
viability at 50 µM: 1
//
STRUCTURE_SMILES_STRING: COc1cc(OC)c(C(=O)/C=C/c2ccc(C(=O)O)cc2)c(OC)c1
SCALE_UNIT: %
INEQUALITY_OPERATOR: =
viability at 50 µM: 25
//
STRUCTURE_SMILES_STRING: COc1cc(O)c(C(=O)/C=C/c2ccccc2)c(OC)c1
SCALE_UNIT: %
INEQUALITY_OPERATOR: =
viability at 50 µM: 1
//
STRUCTURE_SMILES_STRING: COc1cc(OC)c(C(=O)/C=C/c2ccccc2)c(OC)c1
SCALE_UNIT: %
INEQUALITY_OPERATOR: =
viability at 50 µM: 5
//
STRUCTURE_SMILES_STRING: COc1cc(O)c(C(=O)/C=C/c2ccc(Cl)cc2)c(OC)c1
SCALE_UNIT: %
INEQUALITY_OPERATOR: >
viability at 50 µM: 80
//
STRUCTURE_SMILES_STRING: COc1cc(O)c(C(=O)/C=C/c2ccc(C(=O)O)cc2)c(OC)c1
SCALE_UNIT: %
INEQUALITY_OPERATOR: >
viability at 50 µM: 80
